- experimental system: NHERF4_2, Q86UT5
- Sequence (Q86UT5 220-308): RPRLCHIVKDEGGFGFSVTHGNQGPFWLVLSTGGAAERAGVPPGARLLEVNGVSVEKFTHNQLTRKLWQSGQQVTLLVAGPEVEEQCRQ
- assay text: holdup assay
- Parameters: key: below the threshold = too weak to quantify, mostly under pKd 3.1 to 4
- recorded conditions: plain residues with an end cap or a label only (N-terminal biotin on a linker: ado-ado)
metric name: pKd

1. KSRPENGTVC [TMEM178B, H3BS89] : below the threshold
2. ATKDKKITTV [EXOC4, Q96A65] : below the threshold
3. PLPPEEESWV [GAS2L2, Q8NHY3] : below the threshold
4. PSDSVGKDVF [EGLN1, Q9GZT9] : below the threshold
